The measured values listed here are drawn from patent US20040072746A1.

Target: MCT1 (Homo sapiens, UniProt P53985, D490E)
Sequence (P53985 1-500 D490E): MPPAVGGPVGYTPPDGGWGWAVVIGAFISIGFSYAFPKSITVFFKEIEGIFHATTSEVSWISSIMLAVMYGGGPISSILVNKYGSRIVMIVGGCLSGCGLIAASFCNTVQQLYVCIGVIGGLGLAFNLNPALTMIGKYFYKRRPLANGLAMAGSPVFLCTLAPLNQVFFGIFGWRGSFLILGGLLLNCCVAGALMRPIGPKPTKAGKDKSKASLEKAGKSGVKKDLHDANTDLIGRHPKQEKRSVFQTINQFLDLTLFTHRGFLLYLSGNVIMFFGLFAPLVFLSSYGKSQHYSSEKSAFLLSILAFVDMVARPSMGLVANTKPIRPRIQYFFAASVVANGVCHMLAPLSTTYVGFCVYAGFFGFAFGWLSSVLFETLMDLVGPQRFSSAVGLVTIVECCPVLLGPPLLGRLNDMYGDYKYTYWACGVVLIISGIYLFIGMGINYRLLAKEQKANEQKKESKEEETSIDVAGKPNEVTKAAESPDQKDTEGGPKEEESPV
Experiment: Yeast expressed MCT1 filter binding assay (competition with 3H-ligand C)
Set-up: The invention is not restricted to the use of full-length native human MCTs; made in house; host or cells: Saccharomyces cerevisiae BY4742 (jen1 deletion), membrane preparation; plasmid pACES14-hMCT1
Conditions: yeast membrane MCT1 filter binding, 2.5 nM 3H-ligand C
propertyMeasured: IC50 (nM)

(1) CC(C)Cn1c(=O)n(C)c(=O)c2cc(Cc3nc4ccccc4s3)sc21
(2) CC(C)Cn1c(=O)n(C)c(=O)c2cc(Cc3ccnc4ccccc34)sc21
**Query** # compare IC50 for 1 vs 2 ; return the one with the smaller value To answer, give the label that identifies your chosen option.
**Result** 2
(2: 105 nM, 1: 787 nM)
